Listing: pEC50 of selected molecules
target: Glutamate receptor 2 (Homo sapiens, UniProt P42262); experiment: Positive allosteric modulation of human GluA2 AMPAR flip isomer expressed in Dox-inducible cells measured every 5 mins by BD calcium indicator dye based-fluorescence analysis in presence of glutamate; format: cell-based
Sequence (P42262 whole entry): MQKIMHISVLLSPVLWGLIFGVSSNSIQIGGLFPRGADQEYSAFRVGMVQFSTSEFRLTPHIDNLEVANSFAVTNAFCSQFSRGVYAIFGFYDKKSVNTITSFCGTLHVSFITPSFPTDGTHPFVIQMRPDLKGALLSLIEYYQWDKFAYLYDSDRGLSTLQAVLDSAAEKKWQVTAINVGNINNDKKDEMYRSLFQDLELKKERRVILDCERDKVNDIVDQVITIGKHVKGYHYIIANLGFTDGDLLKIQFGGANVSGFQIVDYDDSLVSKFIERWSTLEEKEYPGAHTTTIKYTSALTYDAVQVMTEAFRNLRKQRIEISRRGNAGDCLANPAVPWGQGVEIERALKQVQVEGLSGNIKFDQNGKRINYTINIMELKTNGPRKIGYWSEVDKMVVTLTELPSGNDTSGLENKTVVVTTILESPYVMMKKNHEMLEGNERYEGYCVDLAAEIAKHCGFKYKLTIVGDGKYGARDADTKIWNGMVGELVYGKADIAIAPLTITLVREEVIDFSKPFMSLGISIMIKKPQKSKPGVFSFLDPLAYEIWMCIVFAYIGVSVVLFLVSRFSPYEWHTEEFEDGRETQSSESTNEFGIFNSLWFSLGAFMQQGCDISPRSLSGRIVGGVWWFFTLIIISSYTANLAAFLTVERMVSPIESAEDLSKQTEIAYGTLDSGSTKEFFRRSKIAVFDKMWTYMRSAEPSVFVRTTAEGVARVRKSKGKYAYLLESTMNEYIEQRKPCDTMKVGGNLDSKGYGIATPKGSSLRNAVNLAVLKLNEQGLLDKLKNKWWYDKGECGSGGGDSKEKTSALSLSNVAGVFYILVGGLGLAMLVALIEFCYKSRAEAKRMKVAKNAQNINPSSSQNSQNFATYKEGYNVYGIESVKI
pEC50 field: float, defined as -log10 of concentration (mol/L).

Enquiry: Need pEC50, item CCN(Cc1cc(=O)n2cc(C)sc2n1)c1ccc(F)cc1
Return: 6.60

Enquiry: Need pEC50, item Cc1sc2nc(Cn3nc(C(F)(F)F)cc3Cl)cc(=O)n2c1[C@@H]1C[C@H]1CO
Return: 6.82

Enquiry: Need pEC50, item CCN(Cc1cc(=O)n2c(C3CCC3)c(C)sc2n1)c1ccc(F)cc1
Return: 4.44

Enquiry: Need pEC50, item CCN(Cc1cc(=O)n2c(CCO)c(C)sc2n1)c1ccc(F)cc1
Return: 4.98

Enquiry: Need pEC50, item CCN(Cc1cc(=O)n2c(CCCO)c(C)sc2n1)c1ccc(F)cc1
Return: 4.48

Enquiry: Need pEC50, item CCNC(=O)c1c(C)sc2nc(Cn3nc(C(F)(F)F)cc3Cl)cc(=O)n12
Return: 4.43

Enquiry: Need pEC50, item CCNC(=O)c1c(C)sc2nc(Cc3cccc(C(F)(F)F)c3F)cc(=O)n12
Return: 4.55

Enquiry: Need pEC50, item CCN(Cc1cc(=O)n2c(C3CC3)c(C)sc2n1)c1ccc(F)cc1
Return: 4.47

Enquiry: Need pEC50, item CCN(Cc1cc(=O)n2c(N3CCOCC3)c(C)sc2n1)c1ccc(F)cc1
Return: 4.12

###

molecular target: Glutamate receptor 2 (Homo sapiens); assay: Positive allosteric modulation of human GluA2 AMPAR flip isomer expressed in Dox-inducible cells at 125 uM measured every 5 mins by BD calcium indicator dye based-fluorescence analysis in presence of glutamate; assay type: cell-based
Listing: %max of selected compounds
Lab book: enter the figure in %, no units written.

Enquiry: Requested read-out %max, target or system Glutamate receptor 2 (Homo sapiens), entry CCNC(=O)c1c(C)sc2nc(Cc3cc(C#N)ccc3C3CC3)cc(=O)n12
Return: 2

Enquiry: Requested read-out %max, target or system Glutamate receptor 2 (Homo sapiens), entry CCN(Cc1cc(=O)n2c(C(C)(C)O)c(C)sc2n1)c1ccc(F)cc1
Return: 65

Enquiry: Requested read-out %max, target or system Glutamate receptor 2 (Homo sapiens), entry CCN(Cc1cc(=O)n2nc(C)sc2n1)c1ccccc1
Return: 84

Enquiry: Requested read-out %max, target or system Glutamate receptor 2 (Homo sapiens), entry CCN(Cc1cc(=O)n2c(-c3cncnc3)c(C)sc2n1)c1ccc(F)cc1
Return: 56

Enquiry: Requested read-out %max, target or system Glutamate receptor 2 (Homo sapiens), entry CCNC(=O)c1c(C)sc2nc(Cc3cccc(C(F)(F)F)c3F)cc(=O)n12
Return: 9

###

molecular target: Glutamate receptor 2 (Homo sapiens); assay: Positive allosteric modulation of human GluA2 AMPAR flop isomer expressed in Dox-inducible cells at 125 uM measured every 5 mins by BD calcium indicator dye based-fluorescence analysis in presence of glutamate; format: cell-based
Listing: %max of selected compounds
Lab book: enter the figure in %, no units written.

| compound | observation_type | meas_value |
| --- | --- | --- |
| CCN(Cc1cc(=O)n2c(CCO)c(C)sc2n1)c1ccc(F)cc1 | %max | 75 |
| CCNC(=O)c1c(C)sc2nc(Cc3cccc(C(F)(F)F)c3)cc(=O)n12 | %max | 21 |
| CCN(Cc1cc(=O)n2c(C(C)C)c(C)sc2n1)c1ccc(F)cc1 | %max | 1 |

Enquiry: Need %max, item CCNC(=O)c1c(C)sc2nc(Cc3cccc(C#N)c3)cc(=O)n12
Return: 8

Enquiry: Need %max, item Cc1sc2nc(Cc3cccc(C#N)c3F)cc(=O)n2c1C1CC1CO (racemic)
Return: 23

Enquiry: Need %max, item CCN(Cc1cc(=O)n2nc(C)sc2n1)c1ccc(F)cc1
Return: 99
